assay: Iodine color number according to DIN 6162:2014-09; type: physicochemical; details: Polymer P5 (HP56) with stabilizer; 60 d 40° C.
outcome.measure: Iodine color number, 60 d 40° C.
Numbers only.

smiles	Iodine color number, 60 d 40° C.
Cn1sc(Cl)cc1=O	9.0
Cn1sccc1=O	8.7
O=c1[nH]sc2ccccc12	10.4

Please look at the following molecule next.
Tell me the measured Iodine color number, 60 d 40° C. of CCCCCCCCn1sccc1=O , please.
9.7
